System: A549 cell line
Assay: Dye uptake flow cytometry MDR assay
Type: cell-based, human
Conditions: A549, dye uptake, average of three representative experiments (Table 6)
A collection of compounds and their measured D-value, Fumitremorgan C
valueKind: D-value, Fumitremorgan C

INSERT INTO results (compound, datavalue) VALUES
  ('CC(=O)Oc1ccc2c(c1)Oc1cc(OC(C)=O)ccc1C21OC(=O)c2cc(CCl)ccc21 [CMFDA, chloromethylfluorescein diacetate]', 0.21),
  ('CC(=O)OCOC(=O)CN(CC(=O)OCOC(C)=O)Cc1cc2c(cc1OC(C)=O)Oc1cc(OC(C)=O)c(CN(CC(=O)OCOC(C)=O)CC(=O)OCOC(C)=O)cc1C21OC(=O)c2ccccc21', 0.04),
  ('CC(=O)OCOC(=O)CN(CC(=O)OCOC(C)=O)c1ccccc1OCCOc1cc(-c2c3ccc(=O)cc-3oc3cc(OCOC(C)=O)ccc23)ccc1N(CC(=O)OCOC(C)=O)CC(=O)OCOC(C)=O', 0.23),
  ('C=Cc1c(C)c2cc3nc(c4c5[nH]c(cc6nc(cc1[nH]2)C(C)=C6CC)c(C)c5C(=O)[C@@H]4C(=O)OC)[C@@H](CCC(=O)O)[C@@H]3C [Pheophorbide A, pheophorbide A]', 0.35);
